What pest or weed control at 100 ppm was measured for each of the following?
System: Erysiphe graminis—ERYSGT
Test: Powdery Mildew of Wheat, in vivo whole plant, 24 Hour Protectant
Conditions: Erysiphe; 100 ppm spray, wheat, 24 hour protectant; control of fungal infection vs untreated plants; read-out: ERYSGT in vivo 1 Day Protectant

In one line, give reported pest or weed control at 100 ppm of the entry CCCCCCCCCCCCC(=O)O[C@H]1[C@H](C)OC(=O)[C@@H](NC(=O)c2nccc(OC)c2O)COC(=O)[C@@H]1Cc1ccccc1 [Compound 397] . < 25%

Note pest or weed control at 100 ppm for the compound shown: COc1ccnc(C(=O)Nc2ccc(Sc3cccc(C(F)(F)F)c3)cc2)c1O [Compound 445] 25 to 74%

Let me know recorded pest or weed control at 100 ppm for COc1ccnc(C(=O)N[C@H]2COC(=O)[C@H](Cc3ccccc3)[C@@H](O)[C@H](C)OC2=O)c1O [Compound 383] , thanks. < 25%

Give recorded pest or weed control at 100 ppm. COc1ccnc(C(=O)Nc2cccc(Oc3ccccc3C)c2)c1O [Compound 412] < 25%
